Cited source: the FLAb antibody collection (doi:10.7554/elife.23156)

B1: scFv; the commonest letter at each place (parent)
chain 1: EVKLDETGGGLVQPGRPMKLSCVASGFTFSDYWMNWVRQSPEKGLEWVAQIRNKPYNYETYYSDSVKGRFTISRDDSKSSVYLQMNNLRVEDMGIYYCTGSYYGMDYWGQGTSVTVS
chain 2: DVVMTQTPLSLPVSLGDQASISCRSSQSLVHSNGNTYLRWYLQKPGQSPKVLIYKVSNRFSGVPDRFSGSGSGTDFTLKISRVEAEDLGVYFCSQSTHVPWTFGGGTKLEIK

Variants of: B1
Test Details: yeast surface expression (ratio to wild type); higher = more expressed
Condition Info: format: scFv 4-4-20, heavy + light
Property Measured: yeast surface expression

INSERT INTO results (alteration, result_value) VALUES
  ('chain 1 G104E G109C', 0.21),
  ('chain 1 S30N W33M', 0.879),
  ('chain 1 Y32I M34S', 0.65),
  ('chain 1 Y102S Y107W', 0.747),
  ('chain 1 F29Y N35H', 0.732),
  ('chain 1 Y32P W33C', 0.832),
  ('chain 1 M34Y N35R', 0.505),
  ('chain 1 G100V Y102P M105N', 0.63),
  ('chain 1 Y102C G104H', 0.609),
  ('chain 1 T28L F29N', 0.821),
  ('chain 1 M34P', 0.508),
  ('chain 1 Y103F G104R W108Y', 0.139),
  ('chain 1 Y102H W108M', 0.91),
  ('chain 1 M34G W36M', 1.94),
  ('chain 1 D31C W33G', 0.385),
  ('chain 1 F29N S30H', 0.954),
  ('chain 1 F29N W36L', 0.472),
  ('chain 1 Y32A M34V', 0.941),
  ('chain 1 Y102M D106A W108A', 0.612),
  ('chain 1 Y102K', 0.81),
  ('chain 1 M105F', 0.745),
  ('chain 1 Y102A Y103K G109C', 0.237),
  ('chain 1 S101L Y102W', 0.407),
  ('chain 1 F29I N35P', 2.62),
  ('chain 1 S30P D31A Y32H', 0.725),
  ('chain 1 M34S W36K', 0.646),
  ('chain 1 Y32F W33Q', 1.23),
  ('chain 1 D106N W108K', 0.446),
  ('chain 1 F29S M34S', 0.543),
  ('chain 1 S101R W108L', 0.22),
  ('chain 1 T28E V37T', 0.693),
  ('chain 1 M34Q N35S', 0.621),
  ('chain 1 F29S D31W', 0.756),
  ('chain 1 T28P Y32D W36I', 0.789),
  ('chain 1 Y107G W108L G109E', 0.331),
  ('chain 1 T28Y S30P', 1.08),
  ('chain 1 W36T V37M', 0.422),
  ('chain 1 F29Y S30D', 0.937),
  ('chain 1 W33V V37F', 0.82),
  ('chain 1 T28C S30K', 0.943),
  ('chain 1 S101F', 0.596),
  ('chain 1 Y103H D106H', 0.611),
  ('chain 1 D31T Y32G', 0.798),
  ('chain 1 F29R D31G', 0.755),
  ('chain 1 F29N M34A', 0.918),
  ('chain 1 M34F W36Y', 0.948),
  ('chain 1 F29A M34A', 0.738),
  ('chain 1 Y102K Y107H', 0.909),
  ('chain 1 Y102L D106W', 0.238),
  ('chain 1 G100V M105S', 0.855),
  ('chain 1 T28G Y32M', 1.24),
  ('chain 1 S30L', 0.801),
  ('chain 1 G100F S101I', 0.501),
  ('chain 1 Y103M W108M', 1.13),
  ('chain 1 M105I', 0.914),
  ('chain 1 S101P D106G W108F', 0.244),
  ('chain 1 Y103F G109F', 0.237),
  ('chain 1 F29Y N35A', 0.842),
  ('chain 1 T28L S30R', 0.99),
  ('chain 1 F29C S30C', 0.693),
  ('chain 1 Y103D G109D', 0.542),
  ('chain 1 F29E N35I', 0.276),
  ('chain 1 Y32K', 0.804),
  ('chain 1 G104E W108S', 0.331),
  ('chain 1 W33M M34H N35K', 0.305),
  ('chain 1 G100T G109K', 0.433),
  ('chain 1 Y103D M105N', 1.19),
  ('chain 1 D106W G109D', 0.186),
  ('chain 1 W36F V37C', 0.75),
  ('chain 1 G104I', 0.325),
  ('chain 1 T28S S30R', 0.787),
  ('chain 1 W33R V37D', 1.19),
  ('chain 1 Y103V M105P', 0.474),
  ('chain 1 T28C Y32W', 0.802),
  ('chain 1 S30L W33I', 0.639),
  ('chain 1 S101Y G109K', 0.212),
  ('chain 1 G100R Y107N G109K', 0.235),
  ('chain 1 Y103L G104Y', 0.604),
  ('chain 1 T28W S30A', 0.868),
  ('chain 1 F29N S30E', 1.07),
  ('chain 1 N35H W36L', 0.718),
  ('chain 1 S30Y Y32P', 0.691),
  ('chain 1 M105S G109C', 0.182),
  ('chain 1 Y103E W108R', 0.463),
  ('chain 1 S101Q G109S', 0.645),
  ('chain 1 T28H S30D', 0.948),
  ('chain 1 G104F W108I', 0.146),
  ('chain 1 S30A M34C', 0.868),
  ('chain 1 G100F M105K', 1.1),
  ('chain 1 G100R S101I', 0.352),
  ('chain 1 Y102L G109N', 0.369);
